assay_target: Tubulin
experiment_summary: Binding affinity to tubulin (unknown origin) assessed as binding constant by SPR analysis
pKd: −log10 of the molar value. Numbered stars: 1 amine (or outer) side, 2 acyl side, 3 side chain; on linkers, the order of the positions; unused ones are H or OH. Bridge positions count the residues as written; N and C are the ends. Square brackets hold non-standard residues; d marks the D form. Peptide text beside a SMILES is read from it. Nle(6-ylidene) = O=C([C@H](CCCC=[*:3])N[*:1])[*:2]; Phe(4-F) = N[C@@H](Cc1ccc(F)cc1)C(=O)O
endpoint_label: pKd

[
  {
    "molecule": "CC(=O)N[C@@H](Cc1ccccc1)C(=O)N[C@@H](CCCNC(=N)N)C(=O)N[C@@H](CCCNC(=N)N)C(=O)N[C@@H](CCCCN)C(=O)N[C@@H](C)C(=O)N[C@@H](Cc1ccc(F)cc1)C(=O)N[C@H]1CCC/C=C\\CCC[C@@H](C(=O)NCC(=O)O)NC(=O)[C@H](Cc2ccc(O)cc2)NC(=O)[C@H](Cc2c[nH]c3ccccc23)NC(=O)[C@H](Cc2c[nH]cn2)NC1=O (Ac-FRRKA[Phe(4-F)][Nle(6-ylidene)]HWY[Nle(6-ylidene)]G-OH; staple (Z) 7-11)",
    "assay_target": "Tubulin",
    "obs_value": 5.44
  }
]
